// provenance: patent US20250304644A1

experimental_system: human GLP-1R (glucagon-like peptide-1 receptor) (human, UniProt P43220 24-463)
test_summary: cell-based or functional assay
*1 amine or outer side, *2 acyl side, *3 side chain or, on linkers, in order; H or OH if unused. Where no end group is shown, it is not given here. Side-chain parts run from the residue outwards. [ ]: non-standard residue; d: D form. The star is where a group is joined. C18 diacid = O=C(O)CCCCCCCCCCCCCCCCC(=O)*; γGlu = O=C(O)[C@H](CCC(=O)[*:2])N[*:1]; Decanoyl = CCCCCCCCCC(=O)*; AEEA = NCCOCCOCC(=O)O; Aib = CC(C)(N)C(=O)O

binder: HADGTFTSDYST[Aib]LDK([AEEA-AEEA-γGlu-C18 diacid])LAARDFINWLIQTKGKKNDWKHNITQ-OH [Compound 22]
logEC50 GLP-1R: 10.5
--
binder: HXDGTFISDYSTILDNLAARDFIEWLIQTKITK (Aib at position 2; K33 acylated with C10, K(C10); C-terminal amide (-NH2)) [Compound 9]
logEC50 GLP-1R: 8.3
--
binder: H[Aib]EGTFISDYSTILDNLAARDFINWLIQTKITK(Decanoyl)-NH2 [Compound 11]
logEC50 GLP-1R: 7.4
--
binder: H[Aib]DGTFISDYSIILDNLAARDFINWLIQTKITK(Decanoyl)-NH2 [Compound 10]
logEC50 GLP-1R: 8.4
--
binder: HADGTFTSDYSTILDKLAARDFINWLIQTKGKK([AEEA-AEEA-γGlu-C18 diacid])NDWKHNITQ-OH [Compound 24]
logEC50 GLP-1R: 10.3
